- Test system: NIH3T3
- assay notes: Cytotoxicity against mouse H-Ras transformed NIH/3T3 cells by soft agar colony formation assay
- Format: functional, cell-based
- condition notes: Mus musculus, NIH3T3; read-out: IC50
reported metric: IC50 (nM)
Field format: number, assumed nM, no unit text.

Incoming: # input compound: CC(C)OC(=O)N1CCN([C@H]2c3ccc(Cl)cc3C([C@@H](O)c3cncn3C)=Cc3cccnc32)CC1 ; wanted: its IC50
Outgoing: 0.5

Incoming: # input compound: Cn1cncc1[C@H](O)C1=Cc2cccnc2[C@@H](N2CCN(C(=O)Nc3ccc(C#N)cc3)CC2)c2ccc(Cl)cc21 ; wanted: its IC50
Outgoing: 0.5

Incoming: # input compound: Cn1cncc1[C@H](O)C1=Cc2cccnc2[C@@H](N2CCN(C(=O)OC(C)(C)C)CC2)c2ccc(Cl)cc21 ; wanted: its IC50
Outgoing: 0.5

Incoming: # input compound: Cn1cncc1[C@H](O)C1=Cc2cccnc2[C@@H](N2CCN(C(=O)NC3CCCCC3)CC2)c2ccc(Cl)cc21 ; wanted: its IC50
Outgoing: 18

Incoming: # input compound: CO[C@H](C1=Cc2cccnc2[C@@H](N2CCN(C(=O)OC(C)(C)C)CC2)c2ccc(Cl)cc21)c1cncn1C ; wanted: its IC50
Outgoing: 10

Incoming: # input compound: Cn1cncc1[C@H](O)C1=Cc2cccnc2[C@@H](N2CCN(C(=O)NC(C)(C)C)CC2)c2ccc(Cl)cc21 ; wanted: its IC50
Outgoing: 0.5

Incoming: # input compound: Cn1cncc1[C@H](O)C1=Cc2cccnc2[C@@H](N2CCN(C(=O)OC3(C)CCCCC3)CC2)c2ccc(Cl)cc21 ; wanted: its IC50
Outgoing: 1

Incoming: # input compound: N#Cc1ccc(NC(=O)N2CCN([C@H]3c4ccc(Cl)cc4C(Cc4cnc[nH]4)=Cc4cccnc43)CC2)cc1 ; wanted: its IC50
Outgoing: 4

Incoming: # input compound: CO[C@@H](C1=Cc2cccnc2[C@@H](N2CCN(C(=O)OC(C)(C)C)CC2)c2ccc(Cl)cc21)c1cncn1C ; wanted: its IC50
Outgoing: 4

Incoming: # input compound: CC(=O)O[C@H](C1=Cc2cccnc2[C@@H](N2CCN(C(=O)OC(C)(C)C)CC2)c2ccc(Cl)cc21)c1cncn1C ; wanted: its IC50
Outgoing: 1

Incoming: # input compound: Cn1cncc1[C@H](O)C1=Cc2cccnc2[C@@H](N2CCN(C(=O)OC3CCCC3)CC2)c2ccc(Cl)cc21 ; wanted: its IC50
Outgoing: 0.5

Incoming: # input compound: Cn1cncc1CC1=Cc2cccnc2[C@@H](N2CCN(C(=O)Nc3ccc(C#N)cc3)CC2)c2ccc(Cl)cc21 ; wanted: its IC50
Outgoing: 0.5

Incoming: # input compound: Cn1cncc1[C@H](O)C1=Cc2cccnc2[C@@H](N2CCN(C(=O)OC3CCCCC3)CC2)c2ccc(Cl)cc21 ; wanted: its IC50
Outgoing: 1

Incoming: # input compound: Cn1cncc1[C@H](O)C1=Cc2cccnc2[C@@H](N2CCN(C(=O)NCc3ccccc3)CC2)c2ccc(Cl)cc21 ; wanted: its IC50
Outgoing: 2.7

* * *

- assay notes: AUC (0 to 6 hrs) in rat at 10 mg/kg
- Format: ADME, organism-based, Plasma
- Design: time < 6 hr, dose 10 mg/kg
- condition notes: plasma
reported metric: AUC(0-t) at 6 h

Incoming: # input compound: Cn1cncc1[C@H](O)C1=Cc2cccnc2[C@@H](N2CCN(C(=O)OC(C)(C)C)CC2)c2ccc(Cl)cc21 ; wanted: its AUC(0-t) at 6 h
Outgoing: 2.57 µM·h
